- Test system: T-47D breast
- EXPERIMENT_DESCRIPTION: NCI tumour cell line growth inhibition, 48 h
Give TGI for every item shown.

Suppose we examine the molecule N#Cc1ccc(C(=O)c2cnn(-c3ccc(F)cc3)c2N)cc1 ; what TGI value has been reported?
> 25 µM

// repeat for CCc1nc(N)nc(N)c1-c1ccc(N(C)Cc2ccccc2)c([N+](=O)[O-])c1 and report
21.4 µM

// repeat for Cc1nccc2c3ccc(OCc4cn(-c5ccc(Br)cc5)nn4)cc3n(CCCc3ccccc3)c12 and report
> 100 µM

// repeat for Nc1n[nH]c(N)n1 and report
> 10000 µM

// repeat for O=c1[nH]nc(-c2ccccc2)n1-n1cccc1 and report
> 100 µM

Measured values drawn from PubChem BioAssay (NCI) for this set.
